Attribution: patent US9399645B2

- experiment_summary: Caco-2 Permeability Assay
- Format: in vitro ADME
- condition_description: human, apparent permeability A to B, compound at 10 μM, apical buffer pH 6.0, basolateral buffer pH 7.4, read-out: Papp (cm/sec, *10^−6)
Rule: Papp A→B at 10 μM of 10 ×10⁻⁶ cm/s or more gives true (1); anything lower gives false (0).

Use these answered entries as a reference point.
{"columns": ["molecule", "answer_label"],
 "data": [
  ["CC[C@H]1C[C@@H](n2c(=O)nc(-c3cnn(C)c3)c3oc4cnc(-c5cnco5)cc4c32)CCO1", "true (1)"],
  ["CC[C@H]1C[C@@H](n2c(=O)nc(-c3cnn(C)c3)c3oc4ncc(-c5cccnc5)cc4c32)CCO1", "true (1)"],
  ["CC[C@H]1C[C@@H](n2c(=O)nc(-c3cnn(C)c3)c3oc4c(F)cc(-c5cn(C)cn5)cc4c32)CCO1", "true (1)"],
  ["CNc1ccc(-c2nc(=O)n(CCC3CCCO3)c3c2oc2ccc(-c4cnn(C(C)C)c4)cc23)cn1 (centres unmarked)", "false (0)"]
]}

Inquiry: Does Papp A→B at 10 μM meet or surpass 10 ×10⁻⁶ cm/s for C[C@@H]1C[C@H](n2c(=O)nc(-c3cnn(C)c3)c3oc4ccc(-c5cnn(C)c5)nc4c32)C[C@H](C)O1 ?
Reply text: true (1)

Inquiry: Does Papp A→B at 10 μM meet or surpass 10 ×10⁻⁶ cm/s for C[C@@H]1C[C@H](n2c(=O)nc(-c3cnn(C)c3)c3oc4ccc(-c5cnn(C)c5)cc4c32)C[C@H](C)O1 ?
Reply text: true (1)

Inquiry: Does Papp A→B at 10 μM meet or surpass 10 ×10⁻⁶ cm/s for CC[C@H]1C[C@@H](n2c(=O)nc(-c3cnn(C)c3)c3oc4cc(F)c(-c5ccc(C(C)O)nc5)cc4c32)CCO1 (some centres unmarked) ?
Reply text: true (1)

====

- experiment_summary: Caco-2 Permeability Assay
- Format: in vitro ADME
- condition_description: human
- Excerpt: Caco-2 Permeability Assay Caco-2 cells are purchased from Cell Culture Services as frozen instant cells at a concentration of 1*10^7 cells/vial. DMEM+glutamax-I culture media is purchased from Gibco (10569). Fetal bovine serum (FBS) is purchased from HyClone (SH30396.03). Pennicilin/Streptomycin antibiotics are purchased from Gibco (15140). MEM non-essential amino acids are purchased from Gibco (11140). Hank's balanced salt solution (HBSS) is purchased from Gibco (14025). […]
endpoint_label: Papp A→B
Record the result as number plus unit.

Inquiry: Recorded Papp A→B for CC[C@H]1C[C@@H](n2c(=O)nc(-c3cnn(C)c3)c3oc4cnc(-c5cnn(C)c5)cc4c32)CCO1 , please?
Reply text: 17.9 ×10⁻⁶ cm/s

====

Reported pEC50 values for a set of compounds
- System: HIV-1
- experiment_summary: C8166 HIV-1 Luciferase Assay (EC50)
- Assay type: cell-based
- condition_description: Human immunodeficiency virus 1, C8166, 72 h
On this scale, pEC50 is minus log10 of a concentration expressed in M (mol/L).

{"columns": ["compound", "measurement_target", "pEC50"],
 "data": [
  ["CC[C@H]1C[C@@H](n2c(=O)nc(-c3cnn(C)c3)c3oc4c(C#N)cc(-c5cn(C)cn5)cc4c32)CCO1", "HIV-1", 8.00]
]}

Inquiry: Recorded pEC50 for CC[C@H]1C[C@@H](n2c(=O)nc(-c3cnn(C)c3)c3oc4cnc(-c5cn(C)cn5)cc4c32)C[C@@H](C)O1 , please?
Reply text: 7.25

Inquiry: Recorded pEC50 for CC[C@H]1C[C@@H](n2c(=O)nc(-c3cnn(C)c3)c3oc4ncc(-c5cnn(C)c5)cc4c32)CCO1 , please?
Reply text: 7.69

Inquiry: Recorded pEC50 for CC[C@H]1C[C@@H](n2c(=O)nc(-c3cnn(C)c3)c3oc4ccc(-c5cccnc5)cc4c32)CCO1 , please?
Reply text: 7.89

Inquiry: Recorded pEC50 for CC[C@H]1C[C@@H](n2c(=O)nc(-c3cnn(C)c3)c3oc4ccc(-c5cncnc5)nc4c32)CCO1 , please?
Reply text: 7.68

Inquiry: Recorded pEC50 for Cn1cc(-c2ccc3oc4c(-c5ccc(N6CCOCC6)nc5)nc(=O)n(CCC5CCCO5)c4c3c2)cn1 (centres unmarked) , please?
Reply text: 7.55

Inquiry: Recorded pEC50 for CC[C@H]1C[C@@H](n2c(=O)nc(-c3cnn(C)c3)c3oc4ccc(-c5cccnc5)nc4c32)CCO1 , please?
Reply text: 8.13

Inquiry: Recorded pEC50 for CC[C@H]1C[C@@H](n2c(=O)nc(-c3ccc(OC)nc3)c3oc4ccc(-c5cn(C)cn5)nc4c32)CCO1 , please?
Reply text: 8.21

Inquiry: Recorded pEC50 for CN(C)c1ccc(-c2nc(=O)n(CCC3CCCO3)c3c2oc2cc(F)c(-c4cnn(C)c4)cc23)cn1 (centres unmarked) , please?
Reply text: 7.64

Inquiry: Recorded pEC50 for CC[C@H]1C[C@@H](n2c(=O)nc(-c3cnn(C)c3)c3oc4cc(C#N)c(-c5ccn(C)n5)cc4c32)CCO1 , please?
Reply text: 7.49

Inquiry: Recorded pEC50 for CC[C@H]1C[C@@H](n2c(=O)nc(-c3cnn(C)c3)c3oc4c(OC)cc(-c5cnn(C)c5)cc4c32)CCO1 , please?
Reply text: 8.66

====

- experiment_summary: Caco-2 Permeability Assay
- Assay type: in vitro ADME
- condition_description: human, apparent permeability A to B, compound at 10 μM, apical buffer pH 6.0, basolateral buffer pH 7.4, read-out: Papp (cm/sec, *10^−6)
endpoint_label: Papp A→B at 10 μM (×10⁻⁶ cm/s)
Number in ×10⁻⁶ cm/s, nothing else.

Inquiry: Recorded Papp A→B at 10 μM for CC[C@H]1C[C@@H](n2c(=O)nc(-c3cnn(C)c3)c3oc4cnc(-c5cnc(C)o5)cc4c32)CCO1 [Compound 1088] , please?
Reply text: 22.9

Inquiry: Recorded Papp A→B at 10 μM for COc1cc2oc3c(-c4cnn(C)c4)nc(=O)n(CC[C@@H]4CCCO4)c3c2cc1-c1cnn(C)c1 [Compound 1056] , please?
Reply text: 6.7

Inquiry: Recorded Papp A→B at 10 μM for CC[C@H]1C[C@@H](n2c(=O)nc(-c3cnn(C)c3)c3oc4cc(C#N)c(-c5cnn(C)c5)cc4c32)C[C@@H](C)O1 [Compound 1053] , please?
Reply text: 22.2

Inquiry: Recorded Papp A→B at 10 μM for CC[C@H]1C[C@@H](n2c(=O)nc(-c3cnn(C)c3)c3oc4ccc(-c5cnco5)nc4c32)CCO1 [Compound 1007] , please?
Reply text: 19.7

====

- Tested on: HIV-1
- experiment_summary: C8166 HIV-1 Luciferase Assay (EC50)
- Type: cell-based
- condition_description: Human immunodeficiency virus 1, C8166, 72 h
- Experimental: C8166 HIV-1 Luciferase Assay (Ec50) The assay used to measure inhibition of HIV replication is as described in WO 2004/050643, pages 73-75, incorporated herein by reference, with the following modifications: […] 50 μL Steady Glo (luciferase substrate T112=5 hours Promega catalogue # E2520) is added to each well of the 96 well plate. The relative light units (RLU) of luciferase are determined using a luminescence plate reader. […]
Reported EC50 values for a set of compounds

Known results for compounds:
{"columns": ["compound", "measurement_target", "EC50"],
 "data": [
  ["CNc1ccc(-c2nc(=O)n(CCC3CCCCO3)c3c2oc2ccc(-c4cnn(C)c4)cc23)cn1 (stereo not drawn)", "HIV-1", "6.8 nM"],
  ["CC[C@H]1C[C@@H](n2c(=O)nc(-c3cnn(C)c3)c3oc4cc(C)c(-c5cnn(C)c5)cc4c32)CCO1", "HIV-1", "7.7 nM"],
  ["Cn1cc(-c2cc3c(cc2F)oc2c(-c4ccc(N5CCC5)nc4)nc(=O)n(CCC4CCCO4)c23)cn1 (stereo not drawn)", "HIV-1", "7.6 nM"],
  ["CC[C@H]1C[C@@H](n2c(=O)nc(-c3cnn(C)c3)c3oc4cc(Cl)c(-c5cnn(C)c5)cc4c32)CCO1", "HIV-1", "6 nM"],
  ["CC[C@H]1C[C@@H](n2c(=O)nc(-c3cnn(C)c3)c3oc4ccc(-c5cn(C)nc5C)nc4c32)CCO1", "HIV-1", "8.6 nM"],
  ["CC[C@H]1C[C@@H](n2c(=O)nc(-c3cnn(C)c3)c3oc4cnc(-c5cnn(C)c5)cc4c32)CCCO1", "HIV-1", "9.7 nM"],
  ["CC[C@H]1C[C@@H](n2c(=O)nc(-c3cnn(C)c3)c3oc4cc(C#N)c(-c5cn(C)cn5)cc4c32)CCO1", "HIV-1", "9.1 nM"],
  ["CC[C@H]1C[C@@H](n2c(=O)nc(-c3cnn(C)c3)c3oc4ccc(-c5cn(C)cn5)nc4c32)C[C@@H](C)O1", "HIV-1", "8.6 nM"],
  ["CC[C@H]1C[C@@H](n2c(=O)nc(-c3cnn(C)c3)c3oc4ccc(-c5cnn(CC)c5)cc4c32)CCO1", "HIV-1", "6.6 nM"],
  ["CC[C@H]1C[C@@H](n2c(=O)nc(-c3cnn(C)c3)c3oc4ccc(-c5ccn(C)n5)nc4c32)CCO1", "HIV-1", "6.4 nM"]
]}

Inquiry: Recorded EC50 for CC[C@H]1C[C@@H](n2c(=O)nc(-c3cnn(C)c3)c3oc4cnc(-c5cnn(C)c5)cc4c32)CCO1 , please?
Reply text: 5.9 nM

Inquiry: Recorded EC50 for Cn1cc(-c2cc(F)c3oc4c(-c5ccc(N6CCOCC6)nc5)nc(=O)n(CCC5CCCO5)c4c3c2)cn1 (stereo not drawn) , please?
Reply text: 14 nM
